METRIC: melting point (°C)

Would you please look over these solved cases?
CC(C)CN1CCC(CCC(=O)c2cc(Cl)c(N)[nH]c2=O)CC1 : 175
COc1nc(N)c(Cl)cc1C(=O)CCC1CCN(CC(C)(C)O)CC1 : 108.1
CC(C)(C)C(O)CN1CCC(CCC(=O)c2cc(Cl)c(N)[nH]c2=O)CC1 (stereo not shown) : 211.3
COc1nc(N)c(Cl)cc1C(=O)CCC1CCNCC1.Cl : 230.6
COc1nc(N)c(Cl)cc1C(=O)CCC1CCN(CC(O)C(C)(C)C)CC1 (stereo not shown) : 134

(1) Nc1[nH]c(=O)c(C(=O)CCC2CCN(CC3CCCCC3)CC2)cc1Cl
(2) COc1nc(N)ccc1C(=O)CCC1CCN(CC2CCCCC2)CC1
Which of the two items, 1 and 2 , has the greater recorded melting point? Pick one; state its label.
1
(1: 164.3 °C, 2: 73.2 °C)

====

# melting point per entry

CCOC(=O)CN1CCC(CNC(=O)c2cc(Cl)c(N)[nH]c2=O)CC1 [Example 7] : 162 to 164 °C
COc1nc(N)c(Cl)cc1C(=O)CCC1CCN(CC(C)C)CC1 [Example 14] : 128 °C
CCCCN1CCC(CCC(=O)c2ccc(N)nc2OC)CC1 [Example 12] : 85 to 89 °C
CC(C)CCN1CCC(CNC(=O)c2cc(Cl)c(N)[nH]c2=O)CC1 [Example 5] : 131 to 135 °C

Then there is this molecule:
Identify measured melting point corresponding to CCCCN1CCC(CCC(=O)c2cc(Cl)c(N)nc2OC)CC1 [Example 10]
86 to 87 °C

====

# melting point per entry

Would you please look over these solved cases?
CC(C)(C)OC(=O)CN1CCC(CNC(=O)c2cc(Cl)c(N)[nH]c2=O)CC1 : 200 to 203 °C
CCN1CCC(CNC(=O)c2cc(Cl)c(N)[nH]c2=O)CC1 : 136 to 140 °C

Identify measured melting point corresponding to CC(C)CN1CCC(CNC(=O)c2cc(Cl)c(N)[nH]c2=O)CC1
128 to 133 °C
